Reported TGI values follow for various compounds
test system: OVCAR-5 ovarian; test: NCI tumour cell line growth inhibition, 48 h
Form entry: value (µM) — number only.

In [3]: df
Out[3]:
                                   compound  system_under_test  value_measured
0  Cc1ccc(S(=O)(=O)OCCN(CCOS(=O)(=O)c2ccc(C)cc2)c2ccc(C=O)cc2)cc1    OVCAR-5 ovarian            64.8

Test system OVCAR-5 ovarian; read-out TGI; what value for `O=c1[nH]c2c(Nc3c4ccccc4nc4ccccc34)c([N+](=O)[O-])c(Nc3c4ccccc4nc4ccccc34)c([N+](=O)[O-])c2[nH]1` ?
5.02

Test system OVCAR-5 ovarian; read-out TGI; what value for N#CC(C(=O)Nc1ccccc1)C1=C(Cl)C(=O)c2ccccc2C1=O (stereo not given) ?
32.2

###

system: HOP-62 NSCLC; assay: NCI tumour cell line growth inhibition, 48 h
measure: TGI

>>> print(df.to_string())
                                   compound  system_under_test  measure  value_measured
0  CC(=O)Oc1cc2c(cc1OCC(F)(F)F)[C@H]1CC[C@]3(C)[C@@H](OC(C)=O)CC[C@H]3[C@@H]1CC2=O       HOP-62 NSCLC      TGI         > 70 µM
1  COc1ccc(S(=O)(=O)NC(CCC(=O)NC(N)=O)C(=O)NC(N)=O)cc1 (stereo not given)       HOP-62 NSCLC      TGI        > 100 µM
2           S=C(Sc1ccc(Cl)cc1)Sc1ccc(Cl)cc1       HOP-62 NSCLC      TGI         7.58 µM
3  N#Cc1c(-c2ccccc2)c(-c2ccccc2)cc2c(=O)c3ccc(Cl)cc3[nH]c12       HOP-62 NSCLC      TGI        > 100 µM

Quick one: TGI of `O=C(CCCCN1CCN(CCCCC(=O)Nc2ccccc2C#C/C=C\C#Cc2ccccc2C(F)(F)F)CC1)Nc1ccccc1C#C/C=C\C#Cc1ccccc1C(F)(F)F` ?
32 µM

Quick one: TGI of `COc1cc2c(c3c1c(=O)c1ccccc1n3C)C=C([N+](=O)[O-])C(C)(C)O2` ?
> 100 µM

Quick one: TGI of `CN(C)CCCOc1ccc(NC2=C(Cl)C(=O)C(Nc3ccc(OCCCN(C)C)cc3)=C(Cl)C2=O)cc1` ?
3.31 µM

Quick one: TGI of CC1(C)CCC[C@@]2(C)C1CC[C@@]1(CO)O[C@H](C3=CC(=O)OC3O)C[C@H]12 (stereo not given in full) ?
19.3 µM

Quick one: TGI of `COC(=O)Nc1cc(OCCCOC(C)=O)c2[nH]c(C(=O)OC)cc2c1C[C@H](O)CO` ?
> 100 µM

###

test system: MCF7 breast; experiment: NCI tumour cell line growth inhibition, 48 h; in the data active = GI50 below about 0.43 µM; inactive = the rest
Response enum: label 1 = active, label 0 = inactive

compound	class_assignment
O=C(Nc1nc2ccc(S(=O)(=O)Nc3ccc(C4(C(F)(F)F)CC4)cc3)cc2[nH]1)c1cnccn1	label 0

Recorded test outcome, item `COc1cc([C@@H]2c3cc4c(cc3[C@H](SC(=N)N)[C@H]3COC(=O)[C@H]23)OCO4)cc(OC)c1OC`
label 1

Recorded test outcome, item `COc1ccc(-c2cnc(-c3ccncc3-c3cccc(OC)c3)o2)cc1`
label 1

Recorded test outcome, item `O=C(CI)NC(=O)NC(=O)NCc1ccccc1`
label 0

Recorded test outcome, item `C#COc1cccc(Nc2ncnc3cc(NC(=O)[C@@H](C)Cl)ccc23)c1`
label 0

###

Reported log10 of TGI values follow for various molecules
test system: NCI-H522 lung; experiment: NCI tumour cell line growth inhibition, 48 h
# values: log10(TGI), units µM

Examples with answers:
>>> df
                                   molecule  value_measured
0  COC(=O)[C@]12CC[C@@H](C)[C@H](C)[C@@H]1C1=CC[C@@H]3[C@@]4(C)C(C=O)=C[C@@](C)(COS(C)(=O)=O)C4=CC[C@@]3(C)[C@]1(C)CC2           -0.43
1  CCc1ccc(Oc2c(-c3ccc(OCc4ccc(Cl)cc4)cc3O)nn(C)c2C(F)(F)F)cc1            0.29
2  CN(C)C1C(=O)C(C(N)=O)=C(O)C2(O)C(=O)C3=C(O)c4c(O)cccc4C(C)(O)C3CC12.[Cl][Sb]([Cl])[Cl] (stereo not given)            0.61
3  C[n+]1c2ccccc2n2c3ccccc3c(NCCCn3ccnc3)c(C#N)c21            0.34
4  O=C1Nc2ccc(-c3cccnc3)cc2/C1=C/c1cc(Br)c(O)c(Br)c1            1.14

Quick one: log10 of TGI of COc1cc2c(cc1OC)C1=C(C=O)c3ccc(OC)c(OC)c3C(O)N1CC2 (stereo not given) ?
1.88

Quick one: log10 of TGI of `Cc1nnc(SCc2nc(C#N)c(C#N)nc2CSc2nnc(C)s2)s1` ?
0.96

Quick one: log10 of TGI of `O=c1[nH]c2ccccc2cc1-c1nnc(Cc2ccccc2)o1` ?
0.77

###

Reported TGI values follow for various molecules
system: MOLT-4 leukemia; assay: NCI tumour cell line growth inhibition, 48 h

Examples with answers:
>>> print(df.to_string())
                                   molecule  measure  value_measured
0  CCCCCCCCCCCCCCCC(=O)OCC1OC(n2cc(F)c(=O)[nH]c2=O)C(NC(=O)OCc2ccccc2)C(O)C1O (stereo not given)      TGI         38.3 µM
1  [N-]=[N+]=CC(=O)C1CCN(c2ccccc2)C1=O (stereo not given)      TGI         > 10 µM
2  Nc1nc(Cl)c2ncn(Cc3ccc(C45CC6CC(CC(C6)C4)C5)c(OCc4cc(F)c(F)cc4F)c3)c2n1      TGI         2.71 µM

Quick one: TGI of Cc1cccc(C)c1NC(=O)CCCC(=O)C(C#N)c1ccccc1 (stereo not given) ?
> 100 µM

Quick one: TGI of `Oc1cn(-c2ccc(Cl)cc2)nc1-c1n[nH]c(=S)n1-c1ccc(F)cc1` ?
> 100 µM

###

test system: PC-3 prostate; assay: NCI tumour cell line growth inhibition, 48 h
Reported TGI values follow for various compounds

Examples with answers:
In [3]: df
Out[3]:
                                   compound  measure  value_measured
0  CC(=O)CCC1(C(=O)OCC(C)C)CCCC1=O (stereo not given)      TGI        > 100 µM
1   Cc1ccc(S(=O)(=O)N/N=c2/sc3ccccc3n2C)cc1      TGI        > 100 µM

Quick one: TGI of `CC(C)(NO)/C(=N\O)c1ccccc1` ?
> 10 µM

Quick one: TGI of `Nc1nc(Cl)c2ncn(Cc3ccc(C45CC6CC(CC(C6)C4)C5)c(OCc4cc(F)c(F)cc4F)c3)c2n1` ?
3.98 µM

Quick one: TGI of `Cc1cc(NC(=O)NC(=O)c2ccccc2NC(=O)CN(C)C)ccc1Oc1ncc(Br)cn1` ?
> 100 µM

###

tested on: NCI-H226 lung; experiment: NCI tumour cell line growth inhibition, 48 h
Reported TGI values follow for various compounds
Form entry: value (µM) — number only.

                                   compound  value_measured
0  CN(C)C1C(=O)C(C(N)=O)=C(O)C2(O)C(=O)C3=C(O)c4c(O)cccc4C(C)(O)C3CC12.[Cl][Sb]([Cl])[Cl] (stereo unspecified)              22
1  CC(C)OC(=O)C(NC(=O)C(CC(=O)OCc1ccccc1)NC(=O)OCc1ccccc1)NC(=O)C1C(C)(C)CCC1(C)C (stereo unspecified)            22.8
2  Cc1nnc(SCc2nc(C#N)c(C#N)nc2CSc2nnc(C)s2)s1            54.1
3  CC1(C)CCC[C@@]2(C)C1CC[C@@]1(CO)O[C@H](C3=CC(=O)OC3O)C[C@H]12 (stereo partly specified)            35.4
4   NCCCNc1nc2ccccc2c2c(=O)c3cc(Cl)ccc3sc12            74.2

Quick one: TGI of CC[C@]1(c2ccc3c(c2)OCO3)C=[N+]([O-])O[C@H](OC2CCCC2(c2ccccc2)c2ccccc2)[C@@H]1OC(C)=O (stereo partly specified) ?
22.7

Quick one: TGI of `Cn1cc(-c2ccc3ncc(-c4ccc(CC(=O)Nc5cc(C(C)(C)C)nn5C)cc4)cc3c2)cn1` ?
13.3

Quick one: TGI of `C/C(=N\NC(=S)NC(C)(C)C)c1nc2ncccc2[nH]1` ?
13.9

Quick one: TGI of `OCc1ccc(-c2ccc(-c3ccc(CO)o3)o2)o1` ?
2.59

The origin of these recorded values is PubChem BioAssay (NCI).
